- study-system: TLR9 (Homo sapiens, UniProt Q9NR96)
- Construct: lymphocytes, monocytes and dendritic cells that express TLR7, TLR8 and TLR9; endogenous in cells; host or cells: human PBMCs from healthy donors
- Sequence (Q9NR96 26-1032): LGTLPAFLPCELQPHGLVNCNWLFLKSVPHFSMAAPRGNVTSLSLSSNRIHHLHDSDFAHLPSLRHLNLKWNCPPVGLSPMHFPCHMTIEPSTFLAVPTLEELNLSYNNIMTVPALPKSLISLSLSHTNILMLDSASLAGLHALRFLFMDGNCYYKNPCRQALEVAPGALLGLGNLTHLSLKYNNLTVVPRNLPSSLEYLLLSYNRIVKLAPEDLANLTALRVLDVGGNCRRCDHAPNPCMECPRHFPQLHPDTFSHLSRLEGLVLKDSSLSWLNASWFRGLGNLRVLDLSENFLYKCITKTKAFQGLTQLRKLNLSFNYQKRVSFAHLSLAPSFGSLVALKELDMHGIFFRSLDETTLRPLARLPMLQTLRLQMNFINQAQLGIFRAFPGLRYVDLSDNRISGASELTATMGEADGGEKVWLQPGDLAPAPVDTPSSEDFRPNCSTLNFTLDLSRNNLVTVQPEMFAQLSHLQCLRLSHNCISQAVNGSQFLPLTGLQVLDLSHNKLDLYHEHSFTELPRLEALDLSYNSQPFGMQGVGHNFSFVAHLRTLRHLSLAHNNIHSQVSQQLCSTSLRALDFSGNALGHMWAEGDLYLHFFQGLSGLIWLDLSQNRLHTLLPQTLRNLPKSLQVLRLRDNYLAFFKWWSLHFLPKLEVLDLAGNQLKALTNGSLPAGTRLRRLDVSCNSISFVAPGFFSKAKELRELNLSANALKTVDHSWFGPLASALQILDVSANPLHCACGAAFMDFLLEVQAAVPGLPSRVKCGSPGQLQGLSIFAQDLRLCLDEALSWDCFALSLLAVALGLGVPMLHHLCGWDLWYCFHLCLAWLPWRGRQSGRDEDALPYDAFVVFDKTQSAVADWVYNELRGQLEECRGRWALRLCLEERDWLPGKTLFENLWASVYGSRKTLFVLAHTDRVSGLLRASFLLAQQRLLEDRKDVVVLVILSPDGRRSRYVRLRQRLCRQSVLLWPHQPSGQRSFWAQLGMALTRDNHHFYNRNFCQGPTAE
- experimental-details: Human PBMC cell-based assay, TLR9 agonist ODN-2216 stimulation, cytokine (IL-6 and IFNα) readout
- experimental-conditions: human PBMCs, ODN-2216 3 μM, 6 hours; Table 26; read-out: TLR-9 EC50
- Text: Human peripheral blood mononuclear cells (PBMCs) consist of lymphocytes, monocytes and dendritic cells that express TLR7, TLR8 and TLR9. These cells respond to TLR7, TLR8 and TLR9 ligand stimulation and produce cytokines and chemokines in vitro and in vivo. Human PBMCs are therefore suitable to be used in a cell-based assay to assess the in vitro potency of a TLR 7, 8, and/or 9 antagonist. […]
What pEC50 was measured for each of the following?
Keep in mind that pEC50 stands for -log10 of concentration in molar terms.

Value lookup for pEC50; key = Cc1cc(-c2[nH]c3cc(-c4ccc(N5CCN(C(=O)C67CNC(C6)C7)CC5)nc4)ccc3c2C)cc(C)n1
7.37

Value lookup for pEC50; key = Cc1cc(-c2[nH]c3cc(-c4ccc(N5CCN(C(=O)[C@@H]6CC(F)(F)CN6)CC5)nc4)ccc3c2C)cc(C)n1
6.54

Value lookup for pEC50; key = Cc1cc(-c2[nH]c3cc(-c4nc(N5CCNCC5)cs4)ccc3c2C)cc(C)n1
7.27

Value lookup for pEC50; key = Cc1cc(-c2[nH]c3cc(-c4ccc5c(c4)CNC5)ccc3c2C)cc(C)n1
7.25

====

- study-system: TLR9 (Homo sapiens, UniProt Q9NR96)
- Construct: lymphocytes, monocytes and dendritic cells that express TLR7, TLR8 and TLR9; endogenous in cells; host or cells: human PBMCs from healthy donors
- experimental-details: Human PBMC cell-based assay, TLR9 agonist ODN-2216 stimulation, cytokine (IL-6 and IFNα) readout
- experimental-conditions: human PBMCs, ODN-2216 3 μM, 6 hours; Table 26; read-out: TLR-9 EC50
One threshold, 300 nM, splits the recorded EC50 values: lower ones are Yes, equal or higher ones are No.

Please let me know if Cc1cc(-c2[nH]c3cc(-c4cnn5c4CNCC5)ccc3c2C)cc(C)n1 shows EC50 below 300 nM.
No

Please let me know if Cc1cc(-c2[nH]c3cc(-c4ccc(N5CCNCC5)nc4)ccc3c2C)cnn1 shows EC50 below 300 nM.
No

Please let me know if Cc1cc(-c2[nH]c3cc(-c4ccc(N5CC[C@@H](N)C5)nc4)ccc3c2C2CC2)cc(C)n1 shows EC50 below 300 nM.
Yes

Please let me know if Cc1cc(-c2[nH]c3cc(C4CCNC4)ccc3c2C)cc(C)n1 (centres unmarked) shows EC50 below 300 nM.
Yes

Please let me know if Cc1cc(-c2[nH]c3cc(-c4ccc(N5CCC[C@H](N)C5)nc4)ccc3c2C)cc(C)n1 shows EC50 below 300 nM.
Yes

Please let me know if Cc1cc(-c2[nH]c3cc(-c4cnc(N5CCNCC5)nc4)ccc3c2C)cc(C)n1 shows EC50 below 300 nM.
Yes

Please let me know if Cc1cc(-c2[nH]c3cc(-c4ccc5c(c4)[nH]c(=O)n5C4CCNCC4)ccc3c2C)cc(C)n1 shows EC50 below 300 nM.
No

Please let me know if Cc1cc(-c2[nH]c3cc(-c4ccc(CN5CCNCC5)cc4)ccc3c2C)cc(C)n1 shows EC50 below 300 nM.
Yes

Please let me know if Cc1cc(-c2[nH]c3cc(-c4nc(C5CCNCC5)no4)ccc3c2C)cc(C)n1 shows EC50 below 300 nM.
Yes

Please let me know if Cc1cncc(-c2[nH]c3cc(-c4ccc(N5CCNCC5)nc4)ccc3c2C)c1C shows EC50 below 300 nM.
No

Please let me know if Cc1cc(-c2[nH]c3cc(-c4ccnc(N5CCN(C)CC5)c4)ccc3c2C)cc(C)n1 shows EC50 below 300 nM.
Yes

Please let me know if Cc1cc(-c2[nH]c3cc(-c4ccc(N5CCNCC5)nc4)ccc3c2C)cc(N)n1 shows EC50 below 300 nM.
Yes

Please let me know if Cc1cc(-c2[nH]c3cc(-c4ccc(N5CCN(CC(C)(C)O)CC5)nc4)ccc3c2C)cc(C)n1 shows EC50 below 300 nM.
Yes

Please let me know if Cc1c(-c2cn(C)c(=O)c3ccccc23)[nH]c2cc(-c3ccc(N4CCNCC4)nc3)ccc12 shows EC50 below 300 nM.
No

Please let me know if Cc1cc(-c2[nH]c3cc(-c4ccc(N5CCC(N)CC5)nc4)ccc3c2C)cc(C)n1 shows EC50 below 300 nM.
Yes

Please let me know if Cc1cc(-c2[nH]c3cc(-c4cn(C5CCNCC5)nc4C)ccc3c2C)cc(C)n1 shows EC50 below 300 nM.
Yes

Please let me know if Cc1cc(-c2[nH]c3cc(-c4ccc5c(c4)CNCC5)ccc3c2C)cc(C)n1 shows EC50 below 300 nM.
Yes

Please let me know if Cc1cc(-c2[nH]c3cc(-c4cccc(S(=O)(=O)N5CCNCC5)c4)ccc3c2C)cc(C)n1 shows EC50 below 300 nM.
Yes

Please let me know if Cc1cc(-c2[nH]c3cc(-c4ccc5nc([C@H]6CCCCN6)[nH]c5c4)ccc3c2C)cc(C)n1 shows EC50 below 300 nM.
Yes

Please let me know if Cc1cc(-c2[nH]c3cc(-c4ccnc(N5CCNCC5)c4)ccc3c2C)cc(C)n1 shows EC50 below 300 nM.
Yes

Please let me know if Cc1cc(-c2[nH]c3cc(-c4ccc(N5CCNCC5)nc4)ncc3c2C)cc(C)n1 shows EC50 below 300 nM.
No

Please let me know if Cc1cc(-c2[nH]c3cc(-c4ccc(N5CCN(C)CC5)nc4)ccc3c2C)cc(C)n1 shows EC50 below 300 nM.
Yes

Please let me know if Cc1cc(-c2[nH]c3cc(-c4ccc(N5CC[C@H](N)C5)nc4)ccc3c2C)cc(C)n1 shows EC50 below 300 nM.
Yes

Please let me know if Cc1cc(-c2[nH]c3cc(-c4ccc5c(c4)ncn5C4CCNCC4)ccc3c2C)cc(C)n1 shows EC50 below 300 nM.
Yes

Please let me know if Cc1cc(-c2[nH]c3nc(-c4ccc(N5CCNCC5)nc4)ccc3c2C)cc(C)n1 shows EC50 below 300 nM.
Yes

Please let me know if Cc1cc(-c2[nH]c3cc(-c4ccc(N5CC6(CNCCO6)C5)nc4)ccc3c2C)cc(C)n1 shows EC50 below 300 nM.
Yes

Please let me know if Cc1cc(-c2[nH]c3cc(-c4ccc5[nH]c(C6CCNCC6)nc5c4)ccc3c2C)cc(C)n1 shows EC50 below 300 nM.
No

Please let me know if CC(=O)N1CCN(c2ccc(-c3ccc4c(C)c(-c5cc(C)nc(C)c5)[nH]c4c3)cn2)CC1 shows EC50 below 300 nM.
No

Please let me know if Cc1cc(-c2[nH]c3cc(-c4ccc(N5CCNCC5)nc4)ccc3c2C)nc(C)n1 shows EC50 below 300 nM.
No

Please let me know if Cc1cc(-c2[nH]c3cc(-c4ccc(C5CCN(CCO)CC5)nc4)ccc3c2C)cc(C)n1 shows EC50 below 300 nM.
Yes

Please let me know if Cc1cc(-c2[nH]c3cc(-c4cn(C5CCNCC5)nn4)ccc3c2C)cc(C)n1 shows EC50 below 300 nM.
Yes
